# Test system: MS2 coat protein
# assay method text: apparent Kd, MS2 coat protein; higher = weaker binding; RNA-MaP array; FMN 200 µM where present
# details: ligand present: flavin mononucleotide; designed as: OFF switch for flavin mononucleotide
measured attribute: apparent Kd (nM)
Give bare numbers, in nM.

Use these answered entries as a reference point.
[[record]]
macromolecule_sequence = "CGCCACUUAACAGCGGCGCGGUCGAGAAGGGUACAUGAGGAUCACCCAUGUCACGUUCCUCCUGUACAGGAUAUCGUACGGGUA"
result_unit = "nM"
data_value = 117

[[record]]
macromolecule_sequence = "GUGACGGAUGUAGGAUAUGCUGACCAAUGGUCAGCAGAAGGACAUGAGGAUCACCCAUGUCAUCCUUAUAAUAAAUACCGUCAC"
result_unit = "nM"
data_value = 18.3

[[record]]
macromolecule_sequence = "UGUCGGAGCAGAGGAUAUUACAUGAGGAUCACCCAUGUAUGAACCAAUAGCUGGAAACAGCAAUGUGAGAAGGCUGCUCCGACA"
result_unit = "nM"
data_value = 52.3

[[record]]
macromolecule_sequence = "AACAGUACAGGAUAUACAUGAGGAUCACCCAUGUGAGCUUUAAGUGCCGUAGCACAAAGUAGAAGGGUACUGGA"
result_unit = "nM"
data_value = 91.8


Each sequence below has a recorded value; state its apparent Kd.
1. UACGCCUAGGAGAAGGGCCCACUAUAGGGUAAAUGCUGUUCUCACAUGAGGAUCACCCAUGUGCGGCAGGAUAUCCACGCGUAC
2. CCAUGGCAUGUAGGAUAUGUCUGACAAAGUCAGACAGAAGGACAUGAGGAUCACCCAUGUAAACCGAAAGGAACAUAGCCAUGG
3. GGUGCGUAUGUGAGGAUAUGCUGGUCCUUGGAUCAGCAGAAGGCACAUGAGGAUCACCCAUGUGGUGUCGUACA

Output:
1: 39; 2: 7.3; 3: 40.1

###

# System: MS2 coat protein
# assay method text: apparent Kd, MS2 coat protein; higher = weaker binding; RNA-MaP array; theophylline 2 mM where present
# details: designed as: OFF switch for theophylline; no ligand
Would you kindly list apparent Kd for each of these sequences?
Please make sure the unit comes right after the number.

The following sequences have reported results that may help.
[[record]]
macromolecule_sequence = "CCAUAAGUAACUGAUACCAGUGUACUGACAUGAGGAUCACCCAUGUUGGGUUUUGUUGUACACCCUUGGCAGCAGAAUCUUGUGG"
measured_attribute = "apparent Kd"
data_value = "63 nM"

[[record]]
macromolecule_sequence = "AUGUAAGUGGUGUCACUGUGGUCUAGUGAUACCAGUAUCGAAAGAUACCCUUGGCAGCGCUAGAACAUGAGGAUCACCCAUGUUU"
measured_attribute = "apparent Kd"
data_value = "68.8 nM"

[[record]]
macromolecule_sequence = "GCUUGGGUGGCACAGCCCUGGCAGUGCGAUACCAGCACGGUAACGUGCCCUUGGCAGCGCACAUGAGGAUCACCCAUGUGGUGCG"
measured_attribute = "apparent Kd"
data_value = "69.5 nM"

[[record]]
macromolecule_sequence = "UGACAUUGCUGCGAUACCAGACAUGAGGAUCACCCAUGUACCAAGGUAAAGAAAUAACGUGUCCCUUGGCAGCGCAGCAAUGUCU"
measured_attribute = "apparent Kd"
data_value = "9.91 nM"

[[record]]
macromolecule_sequence = "CGUAUUGUAACUGAUACCAGUGUACUGACAUGAGGAUCACCCAUGUUGGGUUUUGUUGUACACCCUUGGCAGCAGAAUCAAUACG"
measured_attribute = "apparent Kd"
data_value = "68.7 nM"

[[record]]
macromolecule_sequence = "UAUAUAUAUAUUGAUACCAGCAGAGAAAACGUUUAUCCUAACAUGAGGAUCACCCAUGUAUGCCCUUGGCAGCGGUAUAUAUAUA"
measured_attribute = "apparent Kd"
data_value = "25.7 nM"


Read the next record carefully.
Input: Checklist item: apparent Kd tested on MS2 coat protein, entry "AUAACAUGAGGAUCACCCAUGUAAGCAGAUACCAGCUAGGAAACUAGCCCUUGGCAGCUGCAAGGUGAUCCUAAUGCAGCUGCAA" , value?
Output: 154 nM

###

# Test system: MS2 coat protein
# assay method text: apparent Kd, MS2 coat protein; higher = weaker binding; RNA-MaP array; FMN 200 µM where present
# details: designed as: ON switch for flavin mononucleotide; no ligand
measured attribute: apparent Kd

[[record]]
macromolecule_sequence = "ACCUAUUUGGAGAAGGCCAGAAUGAUUAGGCUAAGGCGUGAUCCUGCAUGGAGGAUAUCCAAAACAUGAGGAUCACCCAUGUUC"
data_value = "130 nM"

[[record]]
macromolecule_sequence = "GUAGCUACUAUUAUACAUGAGGAUCACCCAUGUUACAUGGGUAAGGAUAUUGAAGUUAUUAUUAUCAAGAAGGUACUAUGCUAC"
data_value = "570 nM"

[[record]]
macromolecule_sequence = "GGAGUACAUGAGGAUCACCCAUGUUGGAACGAAGUAGGAUAUGUACAAUAUUAAAUAAAAACAGAAGGACUAAUAA"
data_value = "62.4 nM"

[[record]]
macromolecule_sequence = "CGCUACGUUUCGUAGCAGUGUCAUCGAGAAGGCCCUGACAUGAGGAUCACCCAUGUUGUUACAUGGGAGGAUAUCGAUGAUACC"
data_value = "12.2 nM"

[[record]]
macromolecule_sequence = "AGGAGACAUGAGGAUCACCCAUGUGCACGUGGAGGAGGAUAUGCUAGUAGAAGAUAGAAAGCAGAAGGCCUAAGAA"
data_value = "69.2 nM"

[[record]]
macromolecule_sequence = "CAUUCCCGUCGAGGAUAUAUUAUAUGACAACAAACACAUACAUGAGGAUCACCCAUGUCCCAUGUAUAGAAGGCGACCUGCGUC"
data_value = "46.6 nM"


Please turn your attention to the following entry.
Input: Any idea what its apparent Kd is? The sequence is "GUACAGCGACAUGAGGAUCACCCAUGUAGCCGCCGAUCGUCGCAGGAUAUGGCAAAGGUUAACAGUCAGAAGGGUGAUGUUCGA"
Output: 73.6 nM

###

For each entry below, report its apparent Kd value.
# Test system: MS2 coat protein
# assay method text: apparent Kd, MS2 coat protein; higher = weaker binding; RNA-MaP array; FMN 200 µM where present
# details: ligand present: flavin mononucleotide; designed as: OFF switch for flavin mononucleotide
One number for each entry, in nM.

Worked examples follow.
[[record]]
macromolecule_sequence = "GGUGCCAUGUAGAAGGCAGAUCUGAUUCAGAUCUGAGGAUAUACAUGAGGAUCACCCAUGUAAAUGCACCGCACGAGAGUGCAA"
measured_attribute = "apparent Kd"
data_value = 149

[[record]]
macromolecule_sequence = "UUACUAUUACAGAAGGUUUAAUAAUAUAUAAAAGAAGGAUAUGUAACAUGAGGAUCACCCAUGUUUCACCCACAUGAGGAUCAU"
measured_attribute = "apparent Kd"
data_value = 10.4

[[record]]
macromolecule_sequence = "GUAUCGUGAGGAUAUCAUGAUUGACUUUUGUUUUGUCAGCGUGAGAAGGCACAUGAGGAUCACCCAUGUGAUUA"
measured_attribute = "apparent Kd"
data_value = 52.9

[[record]]
macromolecule_sequence = "CAGCCCUGAGGAUAUCCAUCCUUGUACAUGAGGAUCACCCAUGUUUUCCUCUGGGCUUUGGGAGAAGGCAGGUAUC"
measured_attribute = "apparent Kd"
data_value = 77.1

[[record]]
macromolecule_sequence = "CGUGUACGAGGAUAUAGAUUGGAUGACAUGAGGAUCACCCAUGUGAUCGAUCUAUUUGGUUUAGAAGGUGUACAUG"
measured_attribute = "apparent Kd"
data_value = 14.2


Each sequence below has a recorded value; state its apparent Kd.
1. UUUUAACAUGAGGAUCACCCAUGUGAGGAUAUCGAAAUUUAUAUUAAUAUUAUUUUUUCGAGAAGGCACAUUUU
2. GUCCAGUUAGGAUAUCAAUGCCACAACAUGAGGAUCACCCAUGUUUGGGUCCCUCACCAAUGAGAAGGAACGGGAC
3. GAUCAGCUUGUGAGGAUAUCCGGGCUUAAAGGCUAGGAGAAGGUACAUGAGGAUCACCCAUGUAGAGUCCUGGG
4. UUAUUAUGUGUAGGAUAUGCAUAUUAUUAUUAUGCAGAAGGACAUGAGGAUCACCCAUGUAUAUUAUUAUUAUAUAUUAUAUGU
5. AGUAACAGAGGAUAUACUGUUUUAUGUGUUUAUUAUUUUGAACAUGAGGAUCACCCAUGUAGAAGGCUGAAUAA
6. UUUAUGUGAGGAUAUCAGUAGUAAAAAAAUAAAAUUACUACUGAGAAGGCACAUGAGGAUCACCCAUGUCCUUC

Output:
1. 155
2. 99.1
3. 111
4. 44.2
5. 21.9
6. 20

###

# Test system: MS2 coat protein
# assay method text: apparent Kd, MS2 coat protein; higher = weaker binding; RNA-MaP array; theophylline 2 mM where present
# details: designed as: ON switch for theophylline; no ligand
measured attribute: apparent Kd (nM)
Answers are plain numbers, in nM.

I would be grateful if you could provide apparent Kd for each of the following entries.
1. GCACCAGGUACGGAUACCAGCUAUAGGCCCAAUGGGCGACAUGAGGAUCACCCAUGUGAUGGCCCUUGGCAGCUGUACCUGGUGC
2. UUAAUGGAGCUUUUAUUUACGAUUUCUGAUACCAGUGUUUCAUUUCACCCUUGGCAGCAGUGACAUGAGGAUCACCCAUGUAAUA
3. AUCUCAUAGAGUGAUACCAGACUACAUGAGGAUCACCCAUGUUAGAUUUAAAUAUCAUUUGUCCCUUGGCAGCACAUUAAGUACA
4. ACUCGGUGUUUGUUGCUCCGAGUGUAUGAUACCAGUUAGUUUUAUGGCCCUUGGCAGCAUAGGACAUGAGGAUCACCCAUGUGUU

Output:
1: 211; 2: 25.7; 3: 12.9; 4: 32.6

Each sequence below has a reported value. Please supply its apparent Kd.
1. UGUAACAUGAGGAUCACCCAUGUGAGUGAUACCAGAUAAGUAGUAGUCCCUUGGCAGCAUAUUGGGCGAGUGUAUAGUCUAUACG
2. AUAACAUGAGGAUCACCCAUGUAAGGUGAUACCAGACGAAGUAAAGUCCCUUGGCAGCACAAGUAAAGUUACGAAUAUUGAUAGA
3. AAGACAUGAGGAUCACCCAUGUGGAGGGAUACCAGCCUGUGUGUGGGCCCUUGGCAGCUUAAAUUUAAUUUAAUUAAAUAAAUUU
4. CUCGAGGCCGGUGAUACCAGACACGAAACUAUACAUGAGGAUCACCCAUGUCAAACAACGGUCCCUUGGCAGCAUGGGUGUAUCC
5. AACAUGAGGAUCACCCAUGUGUCCCUUGAUACCAGUCCCAUGUGAGACCCUUGGCAGCAAACAUGAGGAUCACCCAUGUCCCAUG

Output:
1: 157; 2: 430; 3: 34.7; 4: 68.9; 5: 102

Sourced from the EternaBench riboswitch data
